Where do the numbers come from? From patent US20190119389A1.

study.system: T1, recombinant human NRP-1 (human, UniProt O14786 22-856, limits assumed)
T1 construct: also called biotinylated human NRP-1
T1 sequence (O14786 22-856 V179A limits assumed): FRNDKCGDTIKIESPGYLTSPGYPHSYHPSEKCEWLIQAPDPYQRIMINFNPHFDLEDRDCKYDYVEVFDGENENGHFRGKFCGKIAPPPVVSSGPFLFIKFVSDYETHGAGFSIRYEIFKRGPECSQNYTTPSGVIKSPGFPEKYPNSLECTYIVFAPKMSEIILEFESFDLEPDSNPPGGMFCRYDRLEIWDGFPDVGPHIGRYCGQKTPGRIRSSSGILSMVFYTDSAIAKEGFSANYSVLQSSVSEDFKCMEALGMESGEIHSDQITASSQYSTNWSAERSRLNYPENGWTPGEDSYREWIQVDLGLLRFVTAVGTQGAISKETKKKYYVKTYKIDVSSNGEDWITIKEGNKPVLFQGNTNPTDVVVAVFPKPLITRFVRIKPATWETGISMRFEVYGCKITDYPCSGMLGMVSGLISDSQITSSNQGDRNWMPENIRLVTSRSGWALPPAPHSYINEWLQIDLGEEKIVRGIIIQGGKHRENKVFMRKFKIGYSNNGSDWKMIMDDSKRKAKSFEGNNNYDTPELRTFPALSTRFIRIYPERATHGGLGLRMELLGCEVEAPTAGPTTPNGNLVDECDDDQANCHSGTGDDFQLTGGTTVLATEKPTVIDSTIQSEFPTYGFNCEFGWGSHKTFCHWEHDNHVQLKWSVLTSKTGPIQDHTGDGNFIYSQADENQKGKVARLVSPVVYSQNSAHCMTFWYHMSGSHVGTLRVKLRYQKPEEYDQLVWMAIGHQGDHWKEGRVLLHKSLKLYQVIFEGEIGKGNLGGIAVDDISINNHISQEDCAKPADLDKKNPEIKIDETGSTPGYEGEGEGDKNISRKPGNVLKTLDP
test: blocking ELISA, average of n=2: SEMA3A coated, biotinylated human NRP-1 preincubated with IgG4 antibody; competitor SEMA3A
pIC50: −log10 of the molar value.
Parameter: pIC50. Scope: all listed entries.

{"binder": "MAB14 IgG4 S228P (antibody, V domains shown) VH: QVQLQQWGAGLLKPSETLSLTCAVYGGSFRGYYWEWSRQPPGKGLEWIGEISHSGSTNYNPSLKSRVTISVDTSKNQFSLKLSPVTAADTAVYYCARARPYREPYGMDVWGQGTTVTVSS VL: DIQLTQSPSSVSASVGDRVTITCRASQDISSWLAWYQQKPGKAPKLLIYAASSLQSGVPSRFSGSGSGTDFTLTISSLQPEDFATYYCQQELAFPRTFGGGTKVEIKR", "pIC50": 9.22}
{"binder": "MAB13 IgG4 S228P (antibody, V domains shown) VH: QVQLQQWGAGLLKPSETLSLTCAVYGGSFRGYYWEWIRQPPGKGLEWIGEISHSGSTNYNPSLKSRVTISVDTSKNQFSLKLSSVTAADTAVYYCARARPYREPYGMDVWGQGTTVTVSS VL: DIQLTQSPSSVSASVGDRVTITCRASQDISSWLAWYQQKPGKAPKLLIYAASSLQSGVPSRFSGSGSGTDFTLTISSLQPEDFATYYCQQELAFPRTFGGGTKVEIKR", "pIC50": 9.05}
{"binder": "MAB5 IgG4 S228P (antibody, V domains shown) VH: QVQLVQSGAEVKKPGASVKVSCKASGYTFTSYYMHWVRQAPGQGLEWMGIINPQGGDTSYAQKFQGRVTMTRDTSTSTVYMELSSLRSEDTAVYYCARDRGMYYASGFGPWGQGTLVTVSS VL: EIVMTQSPGTLSLSPGERATLSCRASQSVSSSYLAWYQQKPGQAPRLLIYGASNRATGIPDRFSGSGSGTDFTLTISRLEPEDFAVYYCQQLSSFPITFGGGTKVEIKR", "pIC50": 8.54}
{"binder": "MAB12 IgG4 S228P (antibody, V domains shown) VH: EVQLLESGGGLVQPGGSLRLSCAASGFTFSSVAMVWVRQAPGKGLEWVSAISGSGGATYYADSVEGRFTISRDNSKNTLYLQMNSLRAEDTAVYYCAKDPGYDSSRYYYSNYGMDVWGQGTTVTVSS VL: DIQMTQSPSSLSASVGDRVTITCRASQSISSYLNWYQQKPGKAPKLLIYGASSLQSGVPSRFSGSGSGTDFTLTISSLQPEDFATYYCQQTYSLYTFGGGTKVEIKR", "pIC50": 8.92}
{"binder": "MAB2 IgG4 S228P (antibody, V domains shown) VH: QVQLVQSGAEVKKPGASVKVSCKASGYTFRSYYMLWVRQAPGQGLEWMGIIDPSDGSTSYAQKFQGRVTMTRDASTSTVYMELSSLRSEDTAVYYCARGARRITGYGMDVWGQGTTVIVSS VL: DIQMTQSPSSVSASVGDRVTITCRASQGISSWLAWYQQKPGKAPKLLIYAASNLQSGVPSRFSGSGSGTDFTLTISSLQPEDFATYYCQQASVFPFTFGGGTKVEIKR", "pIC50": 8.59}
{"binder": "MAB4 IgG4 S228P (antibody, V domains shown) VH: QVQLVQSGAEVKKPGASVKVSCKASGYTFSRYYMHWVRQAPGQGLEWMGIINPLGGSTLYAQKFQGRVTMTRDTSTSTVYMELSSLRSEDTAVYYCARDLGYYGSGMHVWGQGTLVTVSS VL: DIQMTQSPSSVSASVGDRVTITCRASQGISRWLAWYQQKPGKAPKLLIYAASSLQSGVPSRFSGSGSGTDFTLTISSLQPEDFATYYCQQANLLPFTFGGGTKVEIKR", "pIC50": 8.64}
{"binder": "MAB3 IgG4 S228P (antibody, V domains shown) VH: QAQLVQSGAEVKKPGASVKVSCKASGYTFSRYYMHWVRQAPGQGLEWMGIINPLGGSTLYAQKFQGRVTMTRDTSTSTVYMELSSLRSEDTAVYYCARDLGYYGSGMHAWGQGTLVTVSS VL: DIQMTQSPSSVSASVGDRVTITCRASQGISRWLAWYQQKPGKAPKLLIYAASSLQSGVPSRFSGSGSGTDFTLTISSLQPEDFATYYCQQANLLPFTFGGGTKVEIKR", "pIC50": 8.70}
